- system_tested: T1, C-terminal truncated RSV F protein, secreted from recombinant baculovirus-infected cells (respiratory syncytial virus (strain not …, UniProt P03420 26-526))
- T1 construct: also called F antigen of RSV
- measurement_notes: SPR (BIAcore), F protein immobilized, Fab injected
value_kind: kon (M⁻¹ s⁻¹)
Numbers only; they are read as M⁻¹ s⁻¹.

Recorded results for 3 binders are shown here.
Clone 2 (Fab) (Fab, V domains shown) VH: QVTLRESGPALVKPTQTLTLTCTFSGFSLSTAGMSVGWIRQPPGKALEWLADIWWDDKKDYNPSLKSRLTISKDTSKNQVVLKVTNMDPADTATYYCARDMIFNWYFDVWGQGTTVTVSS VL: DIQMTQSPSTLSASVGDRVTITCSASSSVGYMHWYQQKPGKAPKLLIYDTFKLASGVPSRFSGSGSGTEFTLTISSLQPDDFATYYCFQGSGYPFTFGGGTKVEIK : 531000
Clone 3 (Fab) (Fab, V domains shown) VH: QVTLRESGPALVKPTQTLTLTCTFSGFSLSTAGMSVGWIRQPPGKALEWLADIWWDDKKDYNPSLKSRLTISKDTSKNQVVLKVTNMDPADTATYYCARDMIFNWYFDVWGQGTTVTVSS VL: DIQMTQSPSTLSASVGDRVTITCSASSSVGYMHWYQQKPGKAPKLLIYDTYKQTSGVPSRFSGSGSGTEFTLTISSLQPDDFATYYCFQGSGYPFTFGGGTKVEIK : 605000
Clone 13 (Fab) (Fab, V domains shown) VH: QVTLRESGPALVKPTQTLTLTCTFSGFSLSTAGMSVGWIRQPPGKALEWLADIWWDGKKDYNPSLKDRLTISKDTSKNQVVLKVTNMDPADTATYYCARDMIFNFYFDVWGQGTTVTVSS VL: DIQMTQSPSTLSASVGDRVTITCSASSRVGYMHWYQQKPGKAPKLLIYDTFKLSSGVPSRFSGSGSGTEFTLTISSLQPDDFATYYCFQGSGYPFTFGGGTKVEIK : 743000

Shifting focus to the binder that follows.
Please look up its kon: Clone 7 (Fab) (Fab, V domains shown) VH: QVTLRESGPALVKPTQTLTLTCTFSGFSLSTAGMSVGWIRQPPGKALEWLADIWWDDKKDYNPSLKSRLTISKDTSKNQVVLKVTNMDPADTATYYCARDMITNFYFDVWGQGTTVTVSS VL: DIQMTQSPSTLSASVGDRVTITCSASSRVGYMHWYQQKPGKAPKLLIYDTFKLASGVPSRFSGSGSGTEFTLTISSLQPDDFATYYCFQGSGYPFTFGGGTKVEIK
370000
